Test system: K562 CRISPRi cells
protocol-details: Constant region variant library pooled growth screen, K562
Type: cell-based, human
assay-conditions: sgRNA constant region variant; activity relative to unmodified constant region cr995; mean CRISPRi activity
This section presents molecules with their documented Mean relative activity values.
Form: value (number only, do not type unit).

[[record]]
molecule = "cr248 (nucleic acid, listed as DNA, chemistry not fully specified) guide: GTTTAAGAGCTAAGCTGGAAACAGCATAGCAAGTTTAAATAACGCTAGTCGGTTATCAACTTGAAAAAGTGGCACCGAGTCGGTGCT"
endpoint_result = 0.01369

[[record]]
molecule = "cr130 (nucleic acid, listed as DNA, chemistry not fully specified) guide: GTTTAAGAGCTAAGCTGGAAACAGCATAGCATTTTTAAATAAGGCTAGTCCGTTATCAACTTGAAAAAGTGGCACCGAGTCGGTGCT"
endpoint_result = 0.009507

[[record]]
molecule = "cr615 (nucleic acid, listed as DNA, chemistry not fully specified) guide: GTTTAAGAGCTAAGCTGGAAACAGCATAGCAAGTTTAAATAAGGCTAGTCCGTTATCAACTTGAAAAAGTGCGTGCGAGTCGGAGGT"
endpoint_result = 0.006333


Short answer for cr519 (nucleic acid, listed as DNA, chemistry not fully specified) guide: GTTTAAGAGCTAAGCTGGAAACAGCATAGCAAGGTTAAATAAGGCTAGTCCGTTATCAACTTGAAAAAGTGGCGCCGAGTCGGCGCT : Mean relative activity was 0.01933

Short answer for cr111 (nucleic acid, listed as DNA, chemistry not fully specified) guide: GTTTAAGAGCTAAGCTGGAAACAGCATAGCAACTTTAAATAAGGCTAGTCCGTTATCAACTTGAAAAAGTGGCACAGAGTCTGTGCT : Mean relative activity was 0.013

Short answer for cr079 (nucleic acid, listed as DNA, chemistry not fully specified) guide: GGTCAAGAGCTAAGCTGGAAACAGCATAGCAAGTTTAAATAAGGCTAGTCCGTTATCAACTTGAAAAAGTGGCACCGAGTCGGTGCT : Mean relative activity was 0.01223

Short answer for cr328 (nucleic acid, listed as DNA, chemistry not fully specified) guide: GTTTAAGAGCTAAGCTGGAAACAGCATAGCAACTTTAAATAAGGCTAGTCCGTTATCAACTTGAAAAAGTGGCCCCGAGTCGGGGCT : Mean relative activity was 0.009384
